# Test system: RAW 264.7 cells
# PROCEDURE DETAILS: In vitro toxicity (CellTiter-Glo cell viability), RAW 264.7;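 further: percent of untreated cells luminescence signal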
# Format: cell-based
# MEASUREMENT PARAMETERS: cirRNA (SEQ ID NO: 1) LNPs; RAW 264.7 cells
# Method: RAW 264.7 and Hep G2 cells were transfected with 1 μg/mL RNA-LNPs. At 72 hours post transfection, cell viability was determined with the CellTiter-Glo® reagent kit, according to the kit protocol, measured by a luminometer. The cell viability was calculated according to the following formula: […]
The following molecules are shown together with reported In vitro Viability RAW values.
Include the unit after the number when you answer.

Here is how some molecules turned out for In vitro Viability RAW.
INSERT INTO measurements (molecule, result) VALUES
  ('CCCCC/C=C\C/C=C\CCCCCCCCN(CCCCCCCC(=O)OC(CCCCCCCC)CCCCCCCC)CCCOC(=O)NCCCN(C)C', '129%'),
  ('CCCCC/C=C\C/C=C\CCCCCCCCN(CCCCCCCC(=O)OC(CCCCCCCC)CCCCCCCC)CCCOC(=O)NCCN1CCOCC1', '127%'),
  ('CCCCCCCCC(CCCCCCCC)OC(=O)CCCCCCCN(CCCCCCCCOC(=O)C(CCCCCC)CCCCCCCC)CCOC(=O)NCCCn1ccnc1 (stereo not drawn)', '65%');

# input // returns reported In vitro Viability RAW for input CCCCCCCCCC(=O)OCCCCCCCN(CCCCCCCCOC(=O)C(CCCCCC)CCCCCCCC)CCOC(=O)NCCCN(CC)CC (stereo not drawn)
# output 0%

# input Now the same for CCCCCCCCCCCOC(=O)CCCCCN(CCCCCCCC(=O)OC(CCCCCCCC)CCCCCCCC)CCOC(=O)NCCCn1ccnc1
# output 88%

# input Now the same for CCCCC/C=C\C/C=C\CCCCCCCCN(CCCCCCCC(=O)OC(CCCCCCCC)CCCCCCCC)CCOC(=O)NCCCn1ccnc1
# output 27%

# input Now the same for CCCCCCCCCC(=O)OCCCCCCCN(CCCCCCCCOC(=O)C(CCCCCC)CCCCCCCC)CCCOC(=O)NCCCN(CC)CC (stereo not drawn)
# output 4%

# input Now the same for CCCCCCCCCCC(CCCCCCCC)COC(=O)CCCCCN(CCCCCC(=O)OCC(CCCCCCCC)CCCCCCCCCC)CCOC(=O)NCCN1CCCCC1 (stereo not drawn)
# output 82%

# input Now the same for CCCCC/C=C\C/C=C\CCCCCCCCN(CCCCCCCC/C=C\CCCCCCCC)CCOC(=O)NCc1ncc[nH]1
# output 67%

# input Now the same for CCCCCCCCC(CCCCCC)C(=O)OCCCCCCCCN(CCCCCCCCCCC(=O)OCCCCCC)CCOC(=O)NCCN1CCN(C)CC1 (stereo not drawn)
# output 99%

# input Now the same for CCCCC/C=C\C/C=C\CCCCCCCCN(CCCCCCCC/C=C\C/C=C\CCCCC)CCOC(=O)NCCN1CCN(C)CC1
# output 92%

# input Now the same for CCCCC/C=C\C/C=C\CCCCCCCCN(CCCCCCCC/C=C\C/C=C\CCCCC)CCOC(=O)NCc1ncc[nH]1
# output 96%

# input Now the same for CCCCCCCCCCCOC(=O)CCCCCN(CCCCCCCC(=O)OC(CCCCCCCC)CCCCCCCC)CCOC(=O)NCCN1CCCC1
# output 86%

# input Now the same for CCCCCCCCCCC(CCCCCCCC)COC(=O)CCCCCN(CCCCCC(=O)OCC(CCCCCCCC)CCCCCCCCCC)CCCOC(=O)NCCN1CCCC1 (stereo not drawn)
# output 61%

# input Now the same for CCCCCCCCCCCOC(=O)CCCCCN(CCCCCCCC(=O)OC(CCCCCCCC)CCCCCCCC)CCOC(=O)NCCCN(C)C
# output 86%

# input Now the same for CCCCCCCCCCC(CCCCCCCC)COC(=O)CCCCCN(CCCCCC(=O)OCC(CCCCCCCC)CCCCCCCCCC)CCCOC(=O)NCCN1CCC1 (stereo not drawn)
# output 57%

# input Now the same for CCCCCCCCCCCOC(=O)CCCCCN(CCCCCCCCOC(=O)C(CCCCCC)CCCCCCCC)CCOC(=O)NCc1ncc[nH]1 (stereo not drawn)
# output 83%

# input Now the same for CCCCCCCCCCCOC(=O)CCCCCN(CCCCCCCC(=O)OC(CCCCCCCC)CCCCCCCC)CCOC(=O)NCCN1CCOCC1
# output 81%

# input Now the same for CCCCC/C=C\CCOC(=O)CCCCCN(CCCCCCCCOC(=O)C(CCCCCC)CCCCCCCC)CCOC(=O)NCCN(C)C (stereo not drawn) [Lipid 184]
# output 88%

# input Now the same for CCCCC/C=C\C/C=C\CCCCCCCCN(CCCCCCCC(=O)OC(CCCCCCCC)CCCCCCCC)CCOC(=O)NCCCN(CC)CC
# output 77%

# input Now the same for CCCCCCCCCC(=O)OCCCCCCCN(CCCCCCCCOC(=O)C(CCCCCC)CCCCCCCC)CCCOC(=O)NCCCN(C)C (stereo not drawn)
# output 72%

# input Now the same for CCCCC/C=C\CCOC(=O)CCCCCN(CCCCCCCCOC(=O)C(CCCCCC)CCCCCCCC)CCOC(=O)NCCN1CCCC1 (stereo not drawn)
# output 4%

# input Now the same for CCCCCCCCCCC(CCCCCCCC)COC(=O)CCCCCN(CCCCCC(=O)OCC(CCCCCCCC)CCCCCCCCCC)CCOC(=O)NCCN(C)C (stereo not drawn)
# output 92%

# input Now the same for CCCCC/C=C\C/C=C\CCCCCCCCN(CCCCCC(=O)OCC(CCCCCCCC)CCCCCCCCCC)CCOC(=O)NCCN1CCN(C)CC1 (stereo not drawn)
# output 106%

# input Now the same for CCCCCCCCCC(=O)OCCCCCCCN(CCCCCCCCOC(=O)C(CCCCCC)CCCCCCCC)CCCOC(=O)NCCN(C)C (stereo not drawn)
# output 8%

# input Now the same for CCCCCCCC/C=C\CCCCCCCCN(CCCCCCCCOC(=O)C(CCCCCC)CCCCCCCC)CCOC(=O)NCCN1CCN(C)CC1 (stereo not drawn)
# output 87%

# input Now the same for CCCCC/C=C\CCOC(=O)CCCCCN(CCCCCCCCOC(=O)C(CCCCCC)CCCCCCCC)CCOC(=O)NCCN1CCN(C)CC1 (stereo not drawn)
# output 0%

====

# PROCEDURE DETAILS: LNP size and polydispersity index (PDI) by dynamic light scattering
# Type: physicochemical
# MEASUREMENT PARAMETERS: LNP with cirRNA (SEQ ID NO: 1); in nm (unit assumed)
The following compounds are shown together with reported Size values.
Lab note: jot the number down without any unit.

Here is how some compounds turned out for Size.
INSERT INTO assay_data (compound, numeric_value) VALUES
  ('CCCCC/C=C\C/C=C\CCCCCCCCN(CCCCCCCC(=O)OC(CCCCCCCC)CCCCCCCC)CCCOC(=O)NCCN1CCCCC1 [Lipid 278]', 91.92),
  ('CCCCC/C=C\C/C=C\CCCCCCCCN(CCCCCCCC(=O)OC(CCCCCCCC)CCCCCCCC)CCCOC(=O)NCCCn1ccnc1 [Lipid 276]', 64.42),
  ('CCCCCCCCC(CCCCCC)C(=O)OCCCCCCCCN(CCCCCCCCOC(=O)C(CCCCCC)CCCCCCCC)CCCOC(=O)NCCN1CCC1 (centres unmarked) [Lipid 382]', 145.3),
  ('CCCCCCCCCC(=O)OCCCCCCCN(CCCCCCCCOC(=O)C(CCCCCC)CCCCCCCC)CCCOC(=O)NCCCN(CC)CC (centres unmarked) [Lipid 361]', 91.91),
  ('CCCCCCCCC(CCCCCCCC)OC(=O)CCCCCCCN(CCCCCCCCOC(=O)C(CCCCCC)CCCCCCCC)CCOC(=O)NCCN1CCCC1 (centres unmarked) [Lipid 148]', 93.46);

Moving on to another compound below.
# input // returns reported Size for input CCCCCCCCCCC(CCCCCCCC)COC(=O)CCCCCN(CCCCCCCCOC(=O)C(CCCCCC)CCCCCCCC)CCCOC(=O)NCCN(C)C (centres unmarked) [Lipid 364]
# output 113.5

====

# PROCEDURE DETAILS: LNP zeta potential (Zetasizer)
# Type: physicochemical
# MEASUREMENT PARAMETERS: LNP with mRNA (SEQ ID NO: 2)
Response field class: enum, chosen by comparing Zeta (mV) against Low = under 0.5 mV, Medium = from 0.5 mV up to 6 mV, High = 6 mV and over

These recorded examples may help you get a feel for the data.
INSERT INTO assay_data (compound, group_label) VALUES
  ('CCCCCCCCCCC(CCCCCCCC)COC(=O)CCCCCN(CCCCCC(=O)OCC(CCCCCCCC)CCCCCCCCCC)CCCOC(=O)NCCN1CCCC1 (stereo not shown) [Lipid 369]', 'High'),
  ('CCCCCCCCC(CCCCCC)C(=O)OCCCCCCCCN(CCCCCCCCOC(=O)C(CCCCCC)CCCCCCCC)CCCOC(=O)NCCCN(CC)CC (stereo not shown) [Lipid 376]', 'Medium'),
  ('CCCCC/C=C\C/C=C\CCCCCCCCN(CCCCCC(=O)OCC(CCCCCCCC)CCCCCCCCCC)CCOC(=O)NCCN(C)C (stereo not shown) [Lipid 75]', 'High'),
  ('CCCCCCCCC(CCCCCCCC)OC(=O)CCCCCCCN(CCCCCCCCOC(=O)C(CCCCCC)CCCCCCCC)CCCOC(=O)NCCN1CCCCCC1 (stereo not shown) [Lipid 354]', 'Low');

# input Lab log: CCCCC/C=C\C/C=C\CCCCCCCCN(CCCCCCCC(=O)OC(CCCCCCCC)CCCCCCCC)CCCOC(=O)NCc1ncc[nH]1 [Lipid 271] — assign Zeta (mV) category
# output Medium

# input Now the same for CCCCC/C=C\C/C=C\CCCCCCCCN(CCCCCCCC(=O)OC(CCCCCCCC)CCCCCCCC)CCOC(=O)NCc1ncc[nH]1 [Lipid 132]
# output Low

# input Now the same for CCCCC/C=C\C/C=C\CCCCCCCCN(CCCCCCCC(=O)OC(CCCCCCCC)CCCCCCCC)CCOC(=O)NCCN1CCCCC1 [Lipid 127]
# output Low

# input Now the same for CCCCCCCCC(CCCCCCCC)OC(=O)CCCCCCCN(CCCCCCCCOC(=O)C(CCCCCC)CCCCCCCC)CCCOC(=O)NCCN1CCCC1 (stereo not shown) [Lipid 350]
# output Medium
